assay: gradient 5% acetonitrile 3 min, to 50% in 2 min, to 85% in 15 min, held 3 min, 100 µL/min; details: column: Zorbax Extend-C18 2.1 x 50 mm; eluents: water / acetonitrile, 0.1% formic acid
parameter: RP-LC retention time (s)
Give bare numbers, in s.

Look over these answered cases.
[
  {
    "molecule": "O=C(c1ccsc1)N1CC(c2noc(C3CCCN3CC3CC3)n2)C1 (stereo not given)",
    "unit-abbrev": "s",
    "quantitative-readout": 590
  },
  {
    "molecule": "O=C1COc2cc(Cl)ccc2N1Cc1nc(-c2ccc(F)c(Cl)c2)no1",
    "unit-abbrev": "s",
    "quantitative-readout": 1190
  },
  {
    "molecule": "CC(NC(=O)C1CCCN(c2cnc3nccnc3c2)C1)c1ccccn1 (stereo not given)",
    "unit-abbrev": "s",
    "quantitative-readout": 565
  },
  {
    "molecule": "CN(C)CCNc1oc(-c2ccc(COc3ccccc3)o2)nc1C#N",
    "unit-abbrev": "s",
    "quantitative-readout": 684
  },
  {
    "molecule": "CC1=NS(=O)(=O)N(C)C=C1C(=O)OCc1cc(C)ccc1C",
    "unit-abbrev": "s",
    "quantitative-readout": 957
  }
]

Could I get RP-LC retention time for every one of these entries?
1. Cc1ccc(NC(=O)C2CCCN(c3nccc(C)n3)C2)c(Br)c1 (stereo not given)
2. CCN1c2ccc(C)cc2C(=O)NC12CCN(C(=O)Cc1ccc(Cl)cc1)CC2
3. COc1ccc(-n2ncc3c(=O)n(Cc4nc(-c5ccccc5)no4)cnc32)cc1

Data returned:
1. 889
2. 919
3. 961

Take each entry in turn and give its RP-LC retention time.
1. Cc1ccc(-n2cc3c(c(C(=O)NCCCOC(C)C)c2=O)CC(C)(C)CC3=O)cc1
2. COCCOC1CN(C2CCN(C(=O)c3ccc(C)s3)CC2)C12CCCCC2 (stereo not given)

Data returned:
1: 997; 2: 656

###

Kindly state RP-LC retention time for each of the entries shown.
assay: gradient 5% acetonitrile 3 min, to 50% in 2 min, to 85% in 15 min, held 3 min, 100 µL/min; conditions: column: Zorbax Extend-C18 2.1 x 50 mm; eluents: water / acetonitrile, 0.1% formic acid
Numeric answer plus unit only.

Example compounds with recorded RP-LC retention time:
[
  {
    "compound": "Cc1ccc(C)c(CN2C[C@@H]3C(=O)N(C)C(=O)[C@@H]3C2)c1",
    "RP-LC retention time": "611 s"
  },
  {
    "compound": "O=C(NCC1CCOCC1)Nc1ccc(Cl)cc1C(F)(F)F",
    "RP-LC retention time": "846 s"
  }
]

Go through the items and report each one's RP-LC retention time.
1. CCc1c(C(=O)O)nnn1-c1ccc(C)c(F)c1
2. Cn1c(C2CCN(C(=O)Nc3cccc(Br)c3)CC2)cc(=O)n2nccc12

Data returned:
744 s
714 s

State the recorded RP-LC retention time for every item in the following list.
1. Cc1cc(Cl)ccc1S(=O)(=O)N1C[C@H](F)C[C@@H]1C(=O)N1CCOCC1
2. CCCNC(=O)C1CCCN(c2ccc(SCC(=O)Nc3ccc(S(C)(=O)=O)cc3)nn2)C1 (stereo unspecified)
3. Cc1cc(C2CCCN2C(=O)Nc2cccc(Cl)c2C)on1 (stereo unspecified)
4. Cc1cccc(C(=O)N2CCN(c3c(C)n(C)c(=O)n(C)c3=O)CC2)c1
5. Cc1cccc(C)c1Nc1c(-c2ccccc2)nc2cnccn12

Data returned:
762 s
614 s
794 s
726 s
865 s

The following compounds each have a reported value; give each one's RP-LC retention time.
1. Cc1ccc(Cn2cc(-c3ccncc3)cc2C(=O)NCCN(C)C)cc1
2. COc1ccc2c(c1)C1(CCN(S(=O)(=O)c3ccc(OC)c(OC)c3)C1)C(=O)N2 (stereo unspecified)

Data returned:
1. 570 s
2. 757 s
